Hey, just so you know, these numbers are from patent US20180338980A1.

Target: P2X4 (Homo sapiens)
Sequence (Q99571 1-388): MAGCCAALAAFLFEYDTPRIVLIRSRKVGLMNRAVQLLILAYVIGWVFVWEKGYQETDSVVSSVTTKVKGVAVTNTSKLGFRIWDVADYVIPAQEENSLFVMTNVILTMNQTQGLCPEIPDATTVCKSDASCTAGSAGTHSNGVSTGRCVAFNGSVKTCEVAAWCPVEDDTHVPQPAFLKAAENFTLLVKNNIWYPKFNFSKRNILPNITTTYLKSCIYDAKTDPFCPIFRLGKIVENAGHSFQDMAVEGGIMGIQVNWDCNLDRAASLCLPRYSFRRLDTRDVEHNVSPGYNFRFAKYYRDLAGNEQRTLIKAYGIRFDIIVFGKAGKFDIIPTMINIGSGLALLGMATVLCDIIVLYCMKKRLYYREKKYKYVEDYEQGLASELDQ
Experiment: Assay B: human P2X4 receptor cell line, mitochondrial photina luminescence (agonist Bz-ATP at EC50)
Format: cell-based
Design: host or cells: HEK 293 (recombinant, constitutively expressing; with mitochondrial photina in Assay B)
Details: HEK human P2X4 cell line, photina luminescence, agonist Bz-ATP at EC50, average; read-out: human P2X4 Assay B avg Efficacy
Observed Property: Emax (%)

For orientation, consider the following solved cases.
NS(=O)(=O)c1cc(NC(=O)Cc2ccccc2Cl)ccc1Oc1ccc(N2CCCC2=O)cc1: 68
NS(=O)(=O)c1cc(NC(=O)Cc2ccccc2Cl)ccc1OCCc1cccc(Cl)c1: 58
NS(=O)(=O)c1cc(NC(=O)Cc2ccccc2Cl)ccc1Oc1cccc(N2CCOC2=O)c1: 83
NS(=O)(=O)c1cc(NC(=O)Cc2ccccc2Cl)ccc1OCC1CCCC1: 67
CC(C)c1ccccc1CC(=O)Nc1ccc(Oc2cccc(Cl)c2)c(S(N)(=O)=O)c1: 76

[a] NS(=O)(=O)c1cc(NC(=O)Cc2ccccc2Cl)ccc1Oc1cccc(N2CCCCC2=O)c1
[b] Cc1ccc(Br)c(Cl)c1CC(=O)Nc1ccc(Oc2cccc(Cl)c2)c(S(N)(=O)=O)c1
Sorting by Emax in descending order, would a or b appear first? Which one? Tell me its label.
b
(b: 102%, a: 53%)

---

target: P2X4 (Homo sapiens, UniProt Q99571); assay: Assay A: human P2X4 receptor cell line, FLIPR calcium assay (Fluo-8, agonist Bz-ATP at EC80); type: cell-based; design: host or cells: HEK 293 (recombinant, constitutively expressing; with mitochondrial photina in Assay B); settings: percentage of maximal inhibition; HEK human P2X4 cells, Fluo-8 FLIPR; read-out: human P2X4 Assay A avg Efficacy
Observed Property: Emax (%)

NS(=O)(=O)c1cc(NC(=O)Cc2ccccc2C(F)F)ccc1Oc1cccc(Cl)c1 [Example 089]: 85
NS(=O)(=O)c1cc(NC(=O)Cc2cc(OC(F)(F)C(F)F)ccc2Cl)ccc1Oc1cccc(Cl)c1 [Example 134]: 83
NS(=O)(=O)c1cc(NC(=O)Cc2cccc(F)c2Cl)ccc1OCC1CCOCC1 [Example 167]: 87
Cn1cc(Oc2ccc(NC(=O)Cc3ccccc3Cl)cc2S(N)(=O)=O)cn1 [Example 233]: 70

---

target: P2X4 (Homo sapiens, UniProt Q99571); test: Assay B: human P2X4 receptor cell line, mitochondrial photina luminescence (agonist Bz-ATP at EC50); format: cell-based; parameters: host or cells: HEK 293 (recombinant, constitutively expressing; with mitochondrial photina in Assay B); conditions: HEK human P2X4 cell line, photina luminescence, agonist Bz-ATP at EC50, average; read-out: human P2X4 Assay B avg Efficacy
Observed Property: Emax (%)

NS(=O)(=O)c1cc(NC(=O)C(F)(F)c2ccccc2)ccc1Oc1cccc(Cl)c1: 42
CC(C)c1ncc(Oc2ccc(NC(=O)Cc3ccccc3Cl)cc2S(N)(=O)=O)cn1: 65

[a] NS(=O)(=O)c1cc(NC(=O)Cc2ccccc2)ccc1Oc1ccc(F)cc1
[b] NS(=O)(=O)c1cc(NC(=O)Cc2cccc(F)c2Cl)c(Cl)cc1Oc1cccc(Cl)c1
Lab log: flag the item ( a or b ) with the smaller Emax figure. Which one? Tell me its label.
b

---

Molecular target: P2X4 (Homo sapiens)
Sequence (Q99571 1-388): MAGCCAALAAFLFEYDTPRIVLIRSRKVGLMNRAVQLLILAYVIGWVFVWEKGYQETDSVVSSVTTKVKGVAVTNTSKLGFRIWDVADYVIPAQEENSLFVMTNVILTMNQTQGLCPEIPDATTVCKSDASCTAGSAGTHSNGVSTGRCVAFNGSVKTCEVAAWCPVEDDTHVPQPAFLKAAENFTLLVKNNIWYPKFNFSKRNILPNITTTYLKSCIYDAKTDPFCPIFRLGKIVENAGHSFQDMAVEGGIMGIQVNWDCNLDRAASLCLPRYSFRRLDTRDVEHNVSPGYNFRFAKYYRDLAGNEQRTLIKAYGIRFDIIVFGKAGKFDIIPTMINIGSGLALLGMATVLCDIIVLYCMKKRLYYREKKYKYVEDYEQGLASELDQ
Test: Assay A: human P2X4 receptor cell line, FLIPR calcium assay (Fluo-8, agonist Bz-ATP at EC80)
Format: cell-based
Set-up: host or cells: HEK 293 (recombinant, constitutively expressing; with mitochondrial photina in Assay B)
Conditions: HEK human P2X4 cells, Fluo-8 FLIPR, Bz-ATP at EC80; average values
pIC50: −log10 of the molar value.
Observed Property: pIC50

For orientation, consider the following solved cases.
NS(=O)(=O)c1cc(NC(=O)Cc2ccccc2Cl)ccc1OC[C@H]1[C@@H]2COC[C@@H]21 [Example 266]: 7.20
CC(C(=O)Nc1ccc(Oc2cccc(Cl)c2)c(S(N)(=O)=O)c1)c1c(Cl)cccc1Cl (centres unmarked) [Example 260]: 5.60
NS(=O)(=O)c1cc(NC(=O)Cc2ccccc2Cl)ccc1Oc1cccc(Br)c1 [Example 059]: 7.35

[A] NS(=O)(=O)c1cc(NC(=O)Cc2ccccc2Cl)ccc1Oc1ccc(Cl)nc1 [Example 081]
[B] COC(=O)c1ccccc1Oc1ccc(NC(=O)Cc2ccccc2Cl)cc1S(N)(=O)=O [Example 272]
[C] NS(=O)(=O)c1cc(NC(=O)Cc2ccccc2Cl)ccc1OC1CCS(=O)(=O)C1 (centres unmarked) [Example 232]
Ordering criterion: pIC50; begin with the maximum. Order the labels as requested and list them.
B, A, C

---

target: P2X4 (Homo sapiens, UniProt Q99571); assay: Assay A: human P2X4 receptor cell line, FLIPR calcium assay (Fluo-8, agonist Bz-ATP at EC80); format: cell-based; set-up: host or cells: HEK 293 (recombinant, constitutively expressing; with mitochondrial photina in Assay B); details: HEK human P2X4 cells, Fluo-8 FLIPR, Bz-ATP at EC80; average values
pIC50: −log10 of the molar value.
Observed Property: pIC50

[1] Cc1cccc(Oc2ccc(NC(=O)Cc3ccccc3Cl)cc2S(N)(=O)=O)c1 [Example 018]
[2] NS(=O)(=O)c1cc(NC(=O)Cc2ccc(Cl)cc2Cl)ccc1Oc1cccc(Cl)c1 [Example 110]
Sorting by pIC50 in descending order, would 1 or 2 appear first? Which one? Tell me its label.
1
(1: 8.05, 2: 6.60)

[1] Cc1cc(NC(=O)Cc2ccccc2)cc(S(N)(=O)=O)c1Oc1cccc(Cl)c1 [Example 271]
[2] NS(=O)(=O)c1cc(NC(=O)Cc2ccccc2Cl)ccc1OCC1CCCOC1 (centres unmarked) [Example 165]
[3] NS(=O)(=O)c1cc(NC(=O)Cc2c(Cl)ccc(C3CC3)c2Cl)ccc1Oc1cccc(Cl)c1 [Example 129]
[4] N#Cc1ccc(CC(=O)Nc2ccc(Oc3cccc(Cl)c3)c(S(N)(=O)=O)c2)cc1 [Example 224]
List by increasing pIC50. Order the labels as requested and list them.
3, 4, 2, 1

---

target: UniProt Q99571; assay: Assay B: human P2X4 receptor cell line, mitochondrial photina luminescence (agonist Bz-ATP at EC50); assay type: cell-based; parameters: host or cells: HEK 293 (recombinant, constitutively expressing; with mitochondrial photina in Assay B); conditions: HEK human P2X4 cell line, photina luminescence, agonist Bz-ATP at EC50, average; read-out: human P2X4 Assay B avg Efficacy
Observed Property: Emax (%)

NS(=O)(=O)c1cc(NC(=O)Cc2ccccc2Cl)ccc1Oc1cccc(C(=O)N2CCCCC2)c1: 72
NS(=O)(=O)c1cc(NC(=O)Cc2ccccc2Cl)ccc1OCc1ccncn1: 93
CNC(=O)c1cccc(CC(=O)Nc2ccc(Oc3cccc(Cl)c3)c(S(N)(=O)=O)c2)c1: 69

[A] CN1CCCC(Oc2ccc(NC(=O)Cc3ccccc3)cc2S(N)(=O)=O)C1 (centres unmarked)
[B] NS(=O)(=O)c1cc(NC(=O)Cc2ccccc2Cl)ccc1Oc1ccc(N2CCCCC2=O)cc1
[C] NS(=O)(=O)c1cc(NC(=O)Cc2ccc(Cl)cc2Cl)ccc1Oc1cccc(Cl)c1
List by increasing Emax. Order the labels as requested and list them.
A, C, B

---

molecular target: P2X4 (Homo sapiens, UniProt Q99571); assay: Assay B: human P2X4 receptor cell line, mitochondrial photina luminescence (agonist Bz-ATP at EC50); format: cell-based; design: host or cells: HEK 293 (recombinant, constitutively expressing; with mitochondrial photina in Assay B); conditions: HEK human P2X4 cell line, photina luminescence, agonist Bz-ATP at EC50, average; read-out: human P2X4 Assay B avg Efficacy
Observed Property: Emax (%)

NS(=O)(=O)c1cc(NC(=O)Cc2ccccc2Cl)ccc1OCC1CCO1 (centres unmarked): 75
Cc1nc(C2CC2)ncc1Oc1ccc(NC(=O)Cc2ccccc2Cl)cc1S(N)(=O)=O: 73
NS(=O)(=O)c1cc(NC(=O)Cc2ccccc2Cl)ccc1OCC1(F)CCOCC1: 84
COc1ccccc1Oc1ccc(NC(=O)Cc2ccccc2)cc1S(N)(=O)=O: 70
COc1ccc(Oc2ccc(NC(=O)Cc3ccccc3Cl)cc2S(N)(=O)=O)cc1: 73
NS(=O)(=O)c1cc(NC(=O)Cc2ccccc2Cl)ccc1Oc1ccc(F)cc1: 56
COc1ccc(CC(=O)Nc2ccc(Oc3cccc(Cl)c3)c(S(N)(=O)=O)c2)cc1: 65
Cc1cccc(Cl)c1CC(=O)Nc1ccc(Oc2cccc(Cl)c2)c(S(N)(=O)=O)c1: 59
NS(=O)(=O)c1cc(NC(=O)Cc2c(Cl)ccc(Br)c2Cl)ccc1Oc1cccc(Cl)c1: 86
C[C@@H](C(=O)Nc1ccc(Oc2cccc(Cl)c2)c(S(N)(=O)=O)c1)c1ccccc1: 64

[a] COCCNC(=O)c1cccc(CC(=O)Nc2ccc(Oc3cccc(Cl)c3)c(S(N)(=O)=O)c2)c1
[b] NS(=O)(=O)c1cc(NC(=O)Cc2ccccc2Cl)ccc1Oc1cccc(OC(F)(F)F)c1
Lab log: flag the item ( a or b ) with the smaller Emax figure. Which one? Tell me its label.
a
